Test: in vitro
Conditions: human, plasma, PPB
ENDPOINT: fraction unbound at 5 h

- COMPOUND: "CCS(=O)(=O)c1ccc(-c2cc(C(F)(F)F)ccc2OCC(=O)O)c(C)c1"
  REPORTED_VALUE: 0.0428
- COMPOUND: "CCCCc1oc2ccc(NS(C)(=O)=O)cc2c1C(=O)c1ccc(OCCCN(CCCC)CCCC)cc1"
  REPORTED_VALUE: 0.0009
- COMPOUND: "O=C(CCCc1ccc2cccnc2n1)NCc1cc(-c2ccc(F)c(C(F)(F)F)c2)no1"
  REPORTED_VALUE: 0.0009
- COMPOUND: "Cc1cc(-c2ccc(Cl)c(C(=O)NCC3(O)CCCCCC3)c2)nn1C[C@H](O)CN"
  REPORTED_VALUE: 0.304
- COMPOUND: "O=C(NCc1ccccn1)c1cc(-c2ccccc2)nc2ccccc12"
  REPORTED_VALUE: 0.013
- COMPOUND: "COc1cc2ncc(C(N)=O)c(Nc3ccc(Cl)cc3Cl)c2cc1N1CCN(C)CC1"
  REPORTED_VALUE: 0.0321
- COMPOUND: "CC(O)(C(=O)Nc1ccc(S(=O)(=O)N2CCCC2)cc1)C(F)(F)F (stereo unspecified)"
  REPORTED_VALUE: 0.22
- COMPOUND: "CN[C@@H](C)C(=O)N[C@H](C(=O)N[C@H]1CCCN(CCc2ccc(C(F)(F)F)cc2)C1)C(C)(C)C"
  REPORTED_VALUE: 0.0928
- COMPOUND: "CC(C)Oc1cc2ncc(C(N)=O)c(Nc3cccc(Cl)c3F)c2cc1N1CCN(C)CC1"
  REPORTED_VALUE: 0.0488
- COMPOUND: "Cc1cn([C@H]2CCCN(S(=O)(=O)c3ccc(O)c(Oc4cccc(F)c4)c3)C2)c(=O)[nH]c1=O"
  REPORTED_VALUE: 0.0457
- COMPOUND: "COc1cccc(CNCc2cccc(CCNC[C@H](O)c3ccc(O)c4[nH]c(=O)sc34)c2)c1"
  REPORTED_VALUE: 0.137
- COMPOUND: "CN(C)c1nc(Cc2ccc(NC(=O)c3ccc(C(F)(F)F)cc3)cc2)nc(N(C)C)c1CC(=O)O"
  REPORTED_VALUE: 0.0039
- COMPOUND: "O=S1(=O)CC(O)C(N2CCC(c3ccccc3)CC2)C1 (stereo unspecified)"
  REPORTED_VALUE: 0.569
- COMPOUND: "CC[C@H](CO)Nc1nc(SCc2cccc(F)c2F)nc2nc(N)sc12"
  REPORTED_VALUE: 0.0149
- COMPOUND: "O=C(COc1cccc(Cl)c1)NC1CCN(Cc2ccn(-c3ccc(C(F)(F)F)cc3)c2)CC1"
  REPORTED_VALUE: 0.0072
- COMPOUND: "C=CC(=O)Nc1cccc(CN2C(=O)N(c3c(Cl)c(OC)cc(OC)c3Cl)Cc3cnc(NCCCCN(CC)CC)nc32)c1"
  REPORTED_VALUE: 0.02
